Exercise: for every item that follows, state its recorded pIC50.
pIC50: −log10 of the molar value.

Challenge: Give the reported pIC50 for O=C1N[C@]2(C(=O)NS(=O)(=O)C3CC3)C[C@H]2/C=C\CCCCC[C@H](NC(=O)N2CCCCC2)C(=O)N2C[C@H](OC(=O)N3Cc4cccc(F)c4C3)C[C@@H]12 (system: NS3-NS4 (Hepatitis C virus genotype 1a)).
Sequence (P27958 1027-1657): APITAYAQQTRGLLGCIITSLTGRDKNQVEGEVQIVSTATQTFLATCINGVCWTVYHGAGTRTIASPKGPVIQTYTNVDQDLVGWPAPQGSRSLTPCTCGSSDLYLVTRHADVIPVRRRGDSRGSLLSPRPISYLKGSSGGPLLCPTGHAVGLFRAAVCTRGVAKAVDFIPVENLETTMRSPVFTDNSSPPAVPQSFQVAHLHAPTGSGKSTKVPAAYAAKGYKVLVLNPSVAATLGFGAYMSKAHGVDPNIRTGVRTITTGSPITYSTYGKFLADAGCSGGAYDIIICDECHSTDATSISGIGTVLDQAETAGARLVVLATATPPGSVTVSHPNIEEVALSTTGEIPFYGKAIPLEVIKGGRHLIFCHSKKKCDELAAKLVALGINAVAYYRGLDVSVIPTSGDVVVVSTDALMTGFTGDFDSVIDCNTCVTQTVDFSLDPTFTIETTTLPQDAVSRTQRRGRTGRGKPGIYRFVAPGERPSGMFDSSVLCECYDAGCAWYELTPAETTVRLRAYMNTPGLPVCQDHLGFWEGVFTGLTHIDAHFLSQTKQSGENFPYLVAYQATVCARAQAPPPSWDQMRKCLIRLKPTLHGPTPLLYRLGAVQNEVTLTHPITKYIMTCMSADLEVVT
Sequence (P27958 1658-1711): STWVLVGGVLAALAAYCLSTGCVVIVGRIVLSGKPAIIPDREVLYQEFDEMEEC
Response given: > 7.00

Challenge: Give the reported pIC50 for CC(C)(C)OC(=O)N[C@H]1CCCCC/C=C\[C@@H]2C[C@@]2(C(=O)NS(=O)(=O)c2ccccc2)NC(=O)[C@@H]2C[C@@H](OC(=O)N3Cc4cccc(F)c4C3)CN2C1=O (system: NS3-NS4 (Hepatitis C virus genotype 1a)).
Response given: > 7.00

Challenge: Give the reported pIC50 for O=C(N[C@H]1CCCCC/C=C\[C@@H]2C[C@@]2(C(=O)NS(=O)(=O)C2CC2)NC(=O)[C@@H]2C[C@@H](OC(=O)N3Cc4cccc(F)c4C3)CN2C1=O)OC(C1CC1)C1CC1 (system: NS3-NS4 (Hepatitis C virus genotype 1a)).
Response given: > 7.00
